// values below are MIC; system is Staphylococcus aureus (MTCC 96)
readout-kind: MIC (µg/mL)

>>> recorded_value("O=C1C(=Cc2cc3cc([N+](=O)[O-])ccc3nc2Cl)C=C(c2ccc(-c3ccccc3)cc2)N1Cc1ccccc1 [Compound 7h]")
25
>>> recorded_value("O=C1NC(c2ccc3ccccc3c2)=CC1=Cc1cc2cc([N+](=O)[O-])ccc2nc1Cl [Compound 6d]")
6.25
>>> recorded_value("Cc1ccc2nc(Cl)c(C=C3C=C(c4ccc(-c5ccccc5)cc4)NC3=O)cc2c1 [Compound 6g]")
25
>>> recorded_value("O=C1OC(c2ccc(-c3ccccc3)cc2)=CC1=Cc1cc2cc([N+](=O)[O-])ccc2nc1Cl [Compound 5h]")
25
>>> recorded_value("O=C1NC(c2ccc(-c3ccccc3)cc2)=CC1=Cc1cc2ccccc2nc1Cl [Compound 6e]")
12.5
>>> recorded_value("O=C1NC(c2ccc3ccccc3c2)=CC1=Cc1cc2cc(Cl)ccc2nc1Cl [Compound 6b]")
6.25
>>> recorded_value("O=C1OC(c2ccc(-c3ccccc3)cc2)=CC1=Cc1cc2cc(Cl)ccc2nc1Cl [Compound 5f]")
12.5
>>> recorded_value("Cc1ccc2nc(Cl)c(C=C3C=C(c4ccc5ccccc5c4)NC3=O)cc2c1 [Compound 6c]")
12.5

* * *

# Tested on: carrageenan induced edema
# assay-procedure: Anti-inflammatory activity, carrageenan induced rat paw edema
# Format: in vivo, Wistar rats
# test-settings: inhibition of edema, rats, after 3 h
Is % Inhibition ± SEM After 3 h at least 50%? Then label 1. If not, label 0.

>>> label_class("O=C1NC(c2ccc(-c3ccccc3)cc2)=CC1=Cc1cc2cc(Cl)ccc2nc1Cl")
"label 0"
>>> label_class("Cc1ccc2nc(Cl)c(C=C3C=C(c4ccc(-c5ccccc5)cc4)NC3=O)cc2c1")
"label 0"
>>> label_class("O=C1OC(c2ccc(-c3ccccc3)cc2)=CC1=Cc1cc2ccccc2nc1Cl")
"label 1"
>>> label_class("O=C1OC(c2ccc3ccccc3c2)=CC1=Cc1cc2ccccc2nc1Cl")
"label 0"
>>> label_class("Cc1ccc2nc(Cl)c(C=C3C=C(c4ccc(-c5ccccc5)cc4)N(Cc4ccccc4)C3=O)cc2c1")
"label 0"

* * *

// values below are MIC; system is Staphylococcus aureus (MTCC 96)
readout-kind: MIC (µg/mL)

>>> recorded_value("O=C1C(=Cc2cc3cc(Cl)ccc3nc2Cl)C=C(c2ccc(-c3ccccc3)cc2)N1Cc1ccccc1 [Compound 7f]")
12.5
>>> recorded_value("O=C1C(=Cc2cc3ccccc3nc2Cl)C=C(c2ccc(-c3ccccc3)cc2)N1Cc1ccccc1 [Compound 7e]")
50
>>> recorded_value("O=C1NC(c2ccc(-c3ccccc3)cc2)=CC1=Cc1cc2cc([N+](=O)[O-])ccc2nc1Cl [Compound 6h]")
6.25
>>> recorded_value("O=C(O)c1cn(C2CC2)c2cc(N3CCNCC3)c(F)cc2c1=O [Standard-1, Ciprofloxacin, reference compound]")
6.25
>>> recorded_value("O=C1OC(c2ccc3ccccc3c2)=CC1=Cc1cc2cc(Cl)ccc2nc1Cl [Compound 5b]")
12.5
>>> recorded_value("O=C1OC(c2ccc(-c3ccccc3)cc2)=CC1=Cc1cc2ccccc2nc1Cl [Compound 5e]")
25
>>> recorded_value("Cc1ccc2nc(Cl)c(C=C3C=C(c4ccc5ccccc5c4)OC3=O)cc2c1 [Compound 5c]")
25
>>> recorded_value("O=C1OC(c2ccc3ccccc3c2)=CC1=Cc1cc2cc([N+](=O)[O-])ccc2nc1Cl [Compound 5d]")
12.5
>>> recorded_value("Cc1ccc2nc(Cl)c(C=C3C=C(c4ccc(-c5ccccc5)cc4)OC3=O)cc2c1 [Compound 5g]")
25

* * *

// values below are MIC; system is Staphylococcus aureus (MTCC 96)
readout-kind: MIC (µg/mL)

>>> recorded_value("O=C1OC(c2ccc3ccccc3c2)=CC1=Cc1cc2ccccc2nc1Cl [Compound 5a]")
50
>>> recorded_value("Cc1ccc2nc(Cl)c(C=C3C=C(c4ccc5ccccc5c4)N(Cc4ccccc4)C3=O)cc2c1 [Compound 7c]")
25
>>> recorded_value("O=C1NC(c2ccc(-c3ccccc3)cc2)=CC1=Cc1cc2cc(Cl)ccc2nc1Cl [Compound 6f]")
6.25
>>> recorded_value("Cc1ccc2nc(Cl)c(C=C3C=C(c4ccc(-c5ccccc5)cc4)N(Cc4ccccc4)C3=O)cc2c1 [Compound 7g]")
25
>>> recorded_value("O=C1C(=Cc2cc3cc([N+](=O)[O-])ccc3nc2Cl)C=C(c2ccc3ccccc3c2)N1Cc1ccccc1 [Compound 7d]")
25
>>> recorded_value("O=C1C(=Cc2cc3cc(Cl)ccc3nc2Cl)C=C(c2ccc3ccccc3c2)N1Cc1ccccc1 [Compound 7b]")
25
>>> recorded_value("O=C1NC(c2ccc3ccccc3c2)=CC1=Cc1cc2ccccc2nc1Cl [Compound 6a]")
25
>>> recorded_value("O=C1C(=Cc2cc3ccccc3nc2Cl)C=C(c2ccc3ccccc3c2)N1Cc1ccccc1 [Compound 7a]")
50

* * *

# System: carrageenan induced edema
# assay-procedure: Anti-inflammatory activity, carrageenan induced rat paw edema
# Assay type: in vivo, Wistar rats
# test-settings: inhibition of edema, rats, after 3 h
readout-kind: % Inhibition ± SEM After 3 h

>>> recorded_value("O=C1NC(c2ccc3ccccc3c2)=CC1=Cc1cc2cc([N+](=O)[O-])ccc2nc1Cl")
"29 ± 0.16%"
>>> recorded_value("O=C1C(=Cc2cc3ccccc3nc2Cl)C=C(c2ccc3ccccc3c2)N1Cc1ccccc1")
"28 ± 0.34%"
>>> recorded_value("O=C1NC(c2ccc3ccccc3c2)=CC1=Cc1cc2ccccc2nc1Cl")
"49 ± 0.10%"
>>> recorded_value("Cc1ccc2nc(Cl)c(C=C3C=C(c4ccc5ccccc5c4)NC3=O)cc2c1")
"47 ± 0.24%"
>>> recorded_value("O=C1C(=Cc2cc3cc([N+](=O)[O-])ccc3nc2Cl)C=C(c2ccc(-c3ccccc3)cc2)N1Cc1ccccc1")
"58 ± 0.34^∗ %"
>>> recorded_value("Cc1ccc2nc(Cl)c(C=C3C=C(c4ccc(-c5ccccc5)cc4)OC3=O)cc2c1")
"46 ± 0.33%"
>>> recorded_value("O=C1OC(c2ccc(-c3ccccc3)cc2)=CC1=Cc1cc2cc(Cl)ccc2nc1Cl")
"53 ± 0.17%"
>>> recorded_value("O=C1C(=Cc2cc3cc([N+](=O)[O-])ccc3nc2Cl)C=C(c2ccc3ccccc3c2)N1Cc1ccccc1")
"66 ± 0.26%"

* * *

Listing of recorded Ulcerogenic activity (severity index) by entry.
# Tested on: mucosal damage
# assay-procedure: Acute ulcerogenic activity
# Type: in vivo, Albino rats
# test-settings: rats, mean ± SEM
readout-kind: Ulcerogenic activity (severity index)

>>> recorded_value("O=C(O)Cc1ccccc1Nc1c(Cl)cccc1Cl [Diclofenac, diclofenac, reference compound]")
0.86
>>> recorded_value("O=C1C(=Cc2cc3cc([N+](=O)[O-])ccc3nc2Cl)C=C(c2ccc3ccccc3c2)N1Cc1ccccc1")
0.40
>>> recorded_value("O=C1C(=Cc2cc3cc(Cl)ccc3nc2Cl)C=C(c2ccc(-c3ccccc3)cc2)N1Cc1ccccc1")
0.53
>>> recorded_value("O=C1OC(c2ccc(-c3ccccc3)cc2)=CC1=Cc1cc2cc([N+](=O)[O-])ccc2nc1Cl")
0.40
>>> recorded_value("O=C1NC(c2ccc3ccccc3c2)=CC1=Cc1cc2cc(Cl)ccc2nc1Cl")
0.43

* * *

Listing of recorded Central analgesic activity [tail immersion (reaction time in min)] 1 h by entry.
# Test system: tail immersion (hot water 55 °C)
# assay-procedure: Central analgesic activity, tail immersion method
# Format: in vivo, Swiss albino mice
# test-settings: mice, 1 h after the dosing, mean ± SEM
readout-kind: Central analgesic activity [tail immersion (reaction time in min)] 1 h

>>> recorded_value("O=C1C(=Cc2cc3cc(Cl)ccc3nc2Cl)C=C(c2ccc3ccccc3c2)N1Cc1ccccc1")
"2.4 ± 0.3 min"
>>> recorded_value("O=C1NC(c2ccc3ccccc3c2)=CC1=Cc1cc2cc(Cl)ccc2nc1Cl")
"1.8 ± 0.2 min"
>>> recorded_value("O=C1C(=Cc2cc3cc(Cl)ccc3nc2Cl)C=C(c2ccc(-c3ccccc3)cc2)N1Cc1ccccc1")
"3.2 ± 0.2^∗ min"
>>> recorded_value("O=C1OC(c2ccc3ccccc3c2)=CC1=Cc1cc2cc(Cl)ccc2nc1Cl")
"3.2 ± 0.2^∗ min"
>>> recorded_value("O=C1C(=Cc2cc3cc([N+](=O)[O-])ccc3nc2Cl)C=C(c2ccc3ccccc3c2)N1Cc1ccccc1")
"3.2 ± 0.4^∗ min"
>>> recorded_value("O=C(O)Cc1ccccc1Nc1c(Cl)cccc1Cl [Diclofenac, diclofenac, reference compound]")
"8.2 ± 0.2^∗∗ min"

* * *

// values below are MIC; system is Bacillus subtilis (MTCC 121)
readout-kind: MIC

>>> recorded_value("Cc1ccc2nc(Cl)c(C=C3C=C(c4ccc5ccccc5c4)N(Cc4ccccc4)C3=O)cc2c1 [Compound 7c]")
"50 µg/mL"
>>> recorded_value("Cc1ccc2nc(Cl)c(C=C3C=C(c4ccc5ccccc5c4)OC3=O)cc2c1 [Compound 5c]")
"50 µg/mL"
>>> recorded_value("O=C1OC(c2ccc3ccccc3c2)=CC1=Cc1cc2cc(Cl)ccc2nc1Cl [Compound 5b]")
"12.5 µg/mL"
>>> recorded_value("O=C1NC(c2ccc3ccccc3c2)=CC1=Cc1cc2cc(Cl)ccc2nc1Cl [Compound 6b]")
"6.25 µg/mL"
>>> recorded_value("O=C1C(=Cc2cc3cc(Cl)ccc3nc2Cl)C=C(c2ccc3ccccc3c2)N1Cc1ccccc1 [Compound 7b]")
"25 µg/mL"
>>> recorded_value("O=C1NC(c2ccc(-c3ccccc3)cc2)=CC1=Cc1cc2cc([N+](=O)[O-])ccc2nc1Cl [Compound 6h]")
"12.5 µg/mL"
>>> recorded_value("O=C1OC(c2ccc(-c3ccccc3)cc2)=CC1=Cc1cc2cc(Cl)ccc2nc1Cl [Compound 5f]")
"25 µg/mL"
>>> recorded_value("O=C1C(=Cc2cc3cc(Cl)ccc3nc2Cl)C=C(c2ccc(-c3ccccc3)cc2)N1Cc1ccccc1 [Compound 7f]")
"12.5 µg/mL"
>>> recorded_value("O=C1C(=Cc2cc3cc([N+](=O)[O-])ccc3nc2Cl)C=C(c2ccc3ccccc3c2)N1Cc1ccccc1 [Compound 7d]")
"25 µg/mL"
>>> recorded_value("O=C1OC(c2ccc3ccccc3c2)=CC1=Cc1cc2ccccc2nc1Cl [Compound 5a]")
"50 µg/mL"
>>> recorded_value("O=C1NC(c2ccc(-c3ccccc3)cc2)=CC1=Cc1cc2ccccc2nc1Cl [Compound 6e]")
"50 µg/mL"
>>> recorded_value("O=C1OC(c2ccc(-c3ccccc3)cc2)=CC1=Cc1cc2cc([N+](=O)[O-])ccc2nc1Cl [Compound 5h]")
"> 100 µg/mL"
>>> recorded_value("O=C1NC(c2ccc3ccccc3c2)=CC1=Cc1cc2cc([N+](=O)[O-])ccc2nc1Cl [Compound 6d]")
"6.25 µg/mL"
>>> recorded_value("O=C1OC(c2ccc3ccccc3c2)=CC1=Cc1cc2cc([N+](=O)[O-])ccc2nc1Cl [Compound 5d]")
"25 µg/mL"
>>> recorded_value("O=C1OC(c2ccc(-c3ccccc3)cc2)=CC1=Cc1cc2ccccc2nc1Cl [Compound 5e]")
"50 µg/mL"
>>> recorded_value("O=C1NC(c2ccc(-c3ccccc3)cc2)=CC1=Cc1cc2cc(Cl)ccc2nc1Cl [Compound 6f]")
"6.25 µg/mL"
